Target: Adenosine receptor A1 (Homo sapiens)
Sequence (P30542 whole entry): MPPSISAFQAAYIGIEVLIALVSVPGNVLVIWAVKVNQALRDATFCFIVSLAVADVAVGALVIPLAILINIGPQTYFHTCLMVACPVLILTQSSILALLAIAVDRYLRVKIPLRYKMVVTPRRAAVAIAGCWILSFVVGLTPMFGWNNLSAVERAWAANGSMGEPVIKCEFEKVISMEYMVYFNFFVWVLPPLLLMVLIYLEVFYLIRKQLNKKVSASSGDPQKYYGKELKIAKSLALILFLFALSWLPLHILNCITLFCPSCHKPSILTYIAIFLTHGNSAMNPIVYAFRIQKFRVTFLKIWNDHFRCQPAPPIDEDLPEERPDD
Criterion: Ki strictly under 300 nM. Met: y. Not met: n.

// below: answered compounds
{"columns": ["compound", "category"],
 "data": [
  ["CCc1nc2c(=O)n(Cc3ccccc3)nc(-c3ccccc3)c2c2cc(-c3ccccc3)nn12", "n"],
  ["CCc1nc2c(=O)n(C(C)c3ccccc3)nc(C)c2c2cc(-c3ccccc3)nn12 (stereo not given)", "n"],
  ["Cc1nc2c(=O)n(Cc3ccccc3)nc(-c3cccc(F)c3)c2c2cc(-c3ccccc3)nn12", "n"],
  ["O=c1c2ncn3nc(-c4ccccc4)cc3c2c(-c2ccc(F)cc2)nn1Cc1ccccc1", "y"],
  ["CCCc1nc2c(=O)n(Cc3ccccc3)nc(-c3ccccc3)c2c2cc(-c3ccccc3)nn12", "n"],
  ["O=c1c2ncn3nc(-c4ccccc4)cc3c2c(-c2ccncc2)nn1Cc1ccccc1", "y"],
  ["Cc1nn(Cc2ccccc2)c(=O)c2nc(C)n3nc(-c4ccccc4)cc3c12", "n"],
  ["Cc1nc2c(=O)n(Cc3ccccc3)nc(-c3cccnc3)c2c2cc(-c3ccccc3)nn12", "y"],
  ["Cc1nc2c(=O)n(Cc3ccccc3)nc(-c3ccccc3)c2c2cc(-c3ccccc3)nn12", "n"]
]}

## Task Given CCCc1nc2c(=O)n(Cc3ccccc3)nc(-c3ccncc3)c2c2cc(-c3ccccc3)nn12 , is recorded Ki strictly lower than 300 nM?
## Result y
